Collected pIC50 values appear next to each entry.
TARGET DESC: NA of Ind3006 (A/Indonesia/UT3006/05, H5N1) (Influenza A virus)
PROTOCOL TEXT: biochemical
pIC50: −log10 of the molar value.
QUANTITY KIND: pIC50

{"COMPOUND": "CCC(CC)O[C@@H]1C=C(C(=O)O)C[C@H](N)[C@H]1NC(C)=O [Oseltamivir carboxylate]", "QUANTITY KIND": "pIC50", "EXPERIMENTAL VALUE": 8.00}
{"COMPOUND": "CC(=O)N[C@H]1[C@H]([C@H](O)[C@H](O)CO)OC(C(=O)O)=C[C@@H]1N=C(N)N [Zanamivir]", "QUANTITY KIND": "pIC50", "EXPERIMENTAL VALUE": 10.15}
